Experimental Endpoint: melting point

Past entries and their recorded results:
>  <Chemical Smiles>
FC(F)(F)c1cnc(Cl)c(Cl)c1

>  <melting point>
8 to 9 °C

$$$$
>  <Chemical Smiles>
C=CCn1c(SC)nc2ccccc2c1=O

>  <melting point>
75 to 77 °C

$$$$
>  <Chemical Smiles>
c1cc(-c2nnn[nH]2)ccn1

>  <melting point>
265 to 267 °C

$$$$

Task: Item under review: Cc1nn(-c2ccccc2)nc1C(=O)NNS(=O)(=O)c1ccccc1 . Reported melting point?
Output: 217 to 219 °C

----------
Cut-off 100 °C on melting point, inclusive. At or above means yes; below means no.

Example results:
>  <Compound>
CC(C)(C)OC(=O)N[C@H](CC(=O)O)Cc1ccncc1

>  <Class>
yes

$$$$
>  <Compound>
C#CCl

>  <Class>
no

$$$$
>  <Compound>
Nc1ccc(Sc2ccc(N)cc2)cc1

>  <Class>
yes

$$$$
>  <Compound>
NC(=O)C#CC#CC#CCO

>  <Class>
yes

$$$$

Task: Hi, just wondering whether ClC1CC2CCC1C2 (stereo not drawn) shows melting point of 100 °C or higher.
Output: no

Task: Hi, just wondering whether C1CCC(OC2CCCCC2)CC1 shows melting point of 100 °C or higher.
Output: no
